ASSAY_TARGET: HLA-A*02:01 (Homo sapiens, UniProt P04439, D140Y/D185E/D98H/E176V/E277Q/G131W/G231S/I119V/I121R/I166T/I218V/L300P/L318F/N151K/N90K/P208A/P217A/Q86G/Q94H/R138H/R169H/T345S)
ASSAY_OVERVIEW: MHC binding assay (UV-ligand exchange, beta2m ELISA, peptide exchange yield)
SETTINGS: binding of HLA-class I restricted peptides to HLA-A*02:01, ranged by peptide exchange yield (UV-ligand exchange, β2m ELISA)
READOUT_KIND: Peptide exchange

substance="35 (KINDTIYEV; listed as Homo sapiens) [compound 35]" measured_result="″+++″ (≥50% = +++)"
substance="146 (SLATAGDGLIEL; listed as Homo sapiens) [compound 146]" measured_result="″++″ (≥20% = ++)"
substance="563 (WLLPYNGVTV; listed as Homo sapiens) [compound 563]" measured_result="″+++″ (≥50% = +++)"
substance="56 (KLYEGIPVLL; listed as Homo sapiens) [compound 56]" measured_result="″++++″ (≥75% = ++++)"
substance="266 (KITDTLIHL; listed as Homo sapiens) [compound 266]" measured_result="″+++″ (≥50% = +++)"
substance="68 (SLMELPRGLFL; listed as Homo sapiens) [compound 68]" measured_result="″++++″ (≥75% = ++++)"
substance="232 (ALLEAQDVELYL; listed as Homo sapiens) [compound 232]" measured_result="″++″ (≥20% = ++)"
substance="364 (LLQNEQFEL; listed as Homo sapiens) [compound 364]" measured_result="″+++″ (≥50% = +++)"
substance="233 (VLSETLYEL; listed as Homo sapiens) [compound 233]" measured_result="″++″ (≥20% = ++)"

meta.source: patent US10253076B2
